subject-of-test: human 5-HT4b receptor (Homo sapiens, UniProt Q13639)
Construct: expressed in transfected cells; host or cells: CHO cells (G418 selection)
Sequence (Q13639 whole entry): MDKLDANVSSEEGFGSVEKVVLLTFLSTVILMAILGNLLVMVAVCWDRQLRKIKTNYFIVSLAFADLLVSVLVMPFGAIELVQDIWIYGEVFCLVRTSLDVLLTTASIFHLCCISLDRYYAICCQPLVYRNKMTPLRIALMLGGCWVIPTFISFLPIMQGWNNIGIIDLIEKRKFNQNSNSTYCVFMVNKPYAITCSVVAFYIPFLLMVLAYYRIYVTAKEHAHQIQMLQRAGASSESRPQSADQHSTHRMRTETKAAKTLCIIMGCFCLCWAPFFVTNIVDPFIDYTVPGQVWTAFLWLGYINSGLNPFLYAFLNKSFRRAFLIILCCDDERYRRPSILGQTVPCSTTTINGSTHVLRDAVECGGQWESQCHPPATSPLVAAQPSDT
experiment-notes: Test Example 4: Serotonin 4 (5-HT4) receptor agonist activity assay, cAMP HTRF in CHO cells (Table 100)
Type: cell-based
details: concentration showing 50% of IA; mean value
pEC50: −log10 of the molar value. Where a name gives a salt, the structure may show the parent alone.
endpoint-label: pEC50

Below, each entry is followed by its recorded pEC50 result.
{"columns": ["molecule", "subject-of-test", "data-value"],
 "data": [
  ["CC(=O)N1CC(CN2CC[C@H](Cc3nc(-n4nc(C(C)C)c5cccc(F)c54)no3)C2)C1", "human 5-HT4b receptor (Homo sapiens, UniProt Q13639)", 8.46],
  ["CCc1nn(-c2noc(C3CCN(C[C@@H]4CCN(C(=O)CO)C4)CC3)n2)c2c(F)cccc12", "human 5-HT4b receptor (Homo sapiens, UniProt Q13639)", 8.43],
  ["CC(=O)N1CCC(N2CCC(O)(c3nc(-n4nc(C(C)C)c5cccc(F)c54)no3)CC2)CC1", "human 5-HT4b receptor (Homo sapiens, UniProt Q13639)", 7.90],
  ["CC(C)c1nn(-c2noc(C3CCN([C@@H]4C[C@H]5CC[C@@H](C4)N5C(=O)CO)CC3)n2)c2c(F)cccc12", "human 5-HT4b receptor (Homo sapiens, UniProt Q13639)", 8.42]
]}

A: CC(=O)N1CCC(N[C@H]2C[C@@H](c3nc(-n4nc(C(C)C)c5cccc(F)c54)no3)C2)CC1
B: CCc1nn(-c2noc(C3CCN(CC4CCN(C(=O)COC)CC4)CC3)n2)c2c(F)c(F)ccc12 [Example 477, trifluoroacetate]
C: CC(=O)N1CC(CN2CCC(c3nc(-n4nc(C(C)C)c5ccc(F)c(F)c54)no3)CC2)C1 [Example 472, trifluoroacetate]
### Prompt Rank entries according to their pEC50, from the largest number down. Respond with an ordered listing of the labels, as requested.
### Response A, B, C
